# Test system: chickweed (common chickweed, Stellaria media)
# experimental-details: Test D controlled growth environment herbicide test, pre- and postemergence
# Format: in vivo
# test-context: Preemergence, 31 g ai/ha
property-label: Plant response rating (scale of 0 to 100), Chickweed

Please list Plant response rating (scale of 0 to 100), Chickweed recorded for the compound CC(=O)Oc1c(C)nn(C)c(=O)c1-c1c(C)cc(C)c2ccccc12
98

Please list Plant response rating (scale of 0 to 100), Chickweed recorded for the compound CCOC(=O)Oc1c(C)nn(C)c(=O)c1-c1c(C)sc2c(C)cc(C)cc12
100

Please list Plant response rating (scale of 0 to 100), Chickweed recorded for the compound CCOC(=O)Oc1c(C)nn(C)c(=O)c1-c1c(C)ccc2ccccc12
95

Please list Plant response rating (scale of 0 to 100), Chickweed recorded for the compound COc1nn(C)c(=O)c(-c2c(C)ccc3ccccc23)c1O
85

Please list Plant response rating (scale of 0 to 100), Chickweed recorded for the compound Cc1ccc2ccccc2c1-c1c(O)c(C)nn(C)c1=O
100

Please list Plant response rating (scale of 0 to 100), Chickweed recorded for the compound COC(=O)Oc1c(C)nn(C)c(=O)c1-c1c(C)sc2c(C)cc(C)cc12
95

Please list Plant response rating (scale of 0 to 100), Chickweed recorded for the compound Cc1cc(C)c2sc(C)c(-c3c(OC(=O)OC(C)C)c(C)nn(C)c3=O)c2c1
100

Please list Plant response rating (scale of 0 to 100), Chickweed recorded for the compound CCC(=O)Oc1c(C)nn(C)c(=O)c1-c1c(C)sc2ccc(Cl)cc12
100

Please list Plant response rating (scale of 0 to 100), Chickweed recorded for the compound Cc1ccc2ccc(C)c(-c3c(O)c(C)nn(C)c3=O)c2c1
95

Please list Plant response rating (scale of 0 to 100), Chickweed recorded for the compound CCOC(=O)Oc1c(C)nn(C)c(=O)c1-c1c(C)sc2ccc(C)cc12
100

====

# System: corn (Zea mays)
# experimental-details: Test A greenhouse herbicide test, pre- and postemergence
# Assay type: in vivo
# test-context: Postemergence, 500 g ai/ha; 0 to 100 scale, 0 is no effect, 100 is complete control
property-label: Corn plant response rating
Reply with just the number.

Please list Corn plant response rating recorded for the compound COC(=O)Oc1c(C)nn(C)c(=O)c1-c1c(C)sc2c(C)cc(C)cc12
0

Please list Corn plant response rating recorded for the compound CC(=O)Oc1c(C)nn(C)c(=O)c1-c1c(C)sc2ccc(C)cc12
20

Please list Corn plant response rating recorded for the compound CCOC(=O)Oc1c(C)nn(C)c(=O)c1-c1c(C)ccc2ccccc12
60

Please list Corn plant response rating recorded for the compound COc1ccc2ccccc2c1-c1c(O)c(C)nn(C)c1=O
10

Please list Corn plant response rating recorded for the compound Cc1cc(C)c2sc(C)c(-c3c(OC(=O)OCCCl)c(C)nn(C)c3=O)c2c1
0

Please list Corn plant response rating recorded for the compound CCOC(=O)Oc1c(C)nn(C)c(=O)c1-c1c(CC)ccc2ccccc12
40

Please list Corn plant response rating recorded for the compound C#CCOC(=O)Oc1c(C)nn(C)c(=O)c1-c1c(C)sc2ccc(C)cc12
0

Please list Corn plant response rating recorded for the compound CCOC(=O)Oc1c(C)nn(C)c(=O)c1-c1c(C)sc2c(C)cc(C)cc12
0

Please list Corn plant response rating recorded for the compound Cc1cc(C)c2ccccc2c1-c1c(O)cnn(C)c1=O
0

Please list Corn plant response rating recorded for the compound Cc1sc2ccccc2c1-c1c(OC(=O)OC(C)C)c(Cl)nn(C)c1=O
0
